- Protocol Details: Dissociation constant of [3H]DPCPX binding to adenosine A1 receptor (AR) at 5 nM
Value Kind: pKd
One number for each entry, as −log10 of the molar value.

Enquiry: I'd like to know its pKd. The compound in question is `CCCn1c(=O)c2[nH]c(C3CCCCC3)nc2n(CCCNC(=O)c2ccc(S(=O)(=O)F)cc2)c1=O`
Return: 9.43

====

- Protocol Details: Dissociation constant of [3H]-DPCPX binding to adenosine A1 receptor(AR) at 0.05 nM
Value Kind: pKd
One number for each entry, as −log10 of the molar value.

Enquiry: I'd like to know its pKd. The compound in question is `CCCn1c(=O)c2[nH]c(C3CCCC3)nc2n(CCCNC(=O)c2ccc(S(=O)(=O)F)cc2)c1=O`
Return: 9.59

====

- Protocol Details: Dissociation constant of [3H]DPCPX binding to adenosine A1 receptor (AR) at 0.05 nM
Value Kind: pKd
Numbers only, as −log10 of the molar value.

Enquiry: I'd like to know its pKd. The compound in question is `CCCn1c(=O)c2[nH]c(C3CCCCC3)nc2n(CCCNC(=O)c2ccc(S(=O)(=O)F)cc2)c1=O`
Return: 9.55

====

- Protocol Details: Dissociation constant of [3H]-DPCPX binding to adenosine A1 receptor (AR) at 0.1 nM
Value Kind: Kd (nM)
One number for each entry, in nM.

Enquiry: I'd like to know its Kd. The compound in question is `CCCn1c(=O)c2[nH]c(C3CCCCC3)nc2n(CCCNC(=O)c2ccc(S(=O)(=O)F)cc2)c1=O`
Return: 0.27

====

- Protocol Details: Dissociation constant of [3H]DPCPX binding to adenosine A1 receptor (AR) at 200 nM
Value Kind: pKd
Give bare numbers, as −log10 of the molar value.

Go through the items and report each one's pKd.
1. CCCn1c(=O)c2[nH]c(C3CCCCC3)nc2n(CCCCCc2ccc(S(=O)(=O)F)cc2)c1=O
2. CCCn1c(=O)c2[nH]c(C3CCCCC3)nc2n(Cc2ccc(S(=O)(=O)F)cc2)c1=O

Return:
9.09
9.49

Enquiry: I'd like to know its pKd. The compound in question is `CCCn1c(=O)c2[nH]c(C3CCCCC3)nc2n(CCCc2ccc(S(=O)(=O)F)cc2)c1=O`
Return: 9.43

====

- Protocol Details: Dissociation constant of [3H]DPCPX binding to adenosine A1 receptor (AR) at 100 nM
Value Kind: pKd
One number for each entry, as −log10 of the molar value.

Enquiry: I'd like to know its pKd. The compound in question is `CCCn1c(=O)c2[nH]c(C3CCCCC3)nc2n(CCCNC(=O)c2ccc(S(=O)(=O)F)cc2)c1=O`
Return: 9.47

====

- Protocol Details: Dissociation constant of [3H]DPCPX binding to adenosine A1 receptor(AR) at 0.1 nM
Value Kind: pKd
Give bare numbers, as −log10 of the molar value.

Enquiry: I'd like to know its pKd. The compound in question is `CCCn1c(=O)c2[nH]c(C3CCCC3)nc2n(CCCNC(=O)c2ccc(S(=O)(=O)F)cc2)c1=O`
Return: 9.62
